Data origin, for the record: paper PMC9927415

molecular target: STK33 (Homo sapiens); construct: purchased DiscoverX (KINOMEscan); test: KINOMEscan competitive binding; conditions: n=1, read-out: Percent inhibition, STK33
Sequence (Q9BYT3 whole entry): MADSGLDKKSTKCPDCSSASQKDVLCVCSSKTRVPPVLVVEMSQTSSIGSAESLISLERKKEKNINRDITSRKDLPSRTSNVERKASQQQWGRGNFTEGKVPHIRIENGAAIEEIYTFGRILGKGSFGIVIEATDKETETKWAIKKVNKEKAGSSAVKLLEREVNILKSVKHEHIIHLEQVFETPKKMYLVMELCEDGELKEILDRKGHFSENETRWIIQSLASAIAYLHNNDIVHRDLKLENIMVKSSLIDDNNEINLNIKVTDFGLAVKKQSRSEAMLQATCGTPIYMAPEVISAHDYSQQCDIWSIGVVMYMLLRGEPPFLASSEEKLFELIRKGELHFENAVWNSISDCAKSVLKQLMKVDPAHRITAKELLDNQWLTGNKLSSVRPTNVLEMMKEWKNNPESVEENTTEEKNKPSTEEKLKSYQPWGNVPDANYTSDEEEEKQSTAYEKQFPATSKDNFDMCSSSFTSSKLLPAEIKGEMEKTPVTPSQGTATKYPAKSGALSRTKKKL
# inhibition at 10 µM annotations
Only the number, expressed in %, is required.

In the examples that follow, each entry is paired with its recorded inhibition at 10 µM.
COc1cc(Nc2nccc(-c3sc(N)nc3-c3cccc(NC(=O)c4c(F)cccc4F)c3)n2)cc(OC)c1OC: 0
Nc1ncc2c(-c3ccncc3)c[nH]c2n1: 0

Ask | Recorded inhibition at 10 µM for CN1CCN(c2ccc(Nc3nccc(-c4cnn5ncccc45)n3)cc2C#N)CC1 with STK33 (Homo sapiens), please?
Reply | 98.1

Ask | // next record Fc1cccc(COc2ccc(Nc3ncnc4c3CN(CCN3CCOCC3)CC4)cc2Cl)c1
Reply | 0

Ask | // next record c1ccc(COc2cccc(-c3ccnc4[nH]ccc34)c2)cc1
Reply | 0

----------
biological target: CDK5 (Homo sapiens); construct: purchased DiscoverX (KINOMEscan); experiment: KINOMEscan competitive binding; conditions: 10 µM, n=1; kinase CDK5; read-out: Percent inhibition CDK5
Sequence (Q00535 whole entry): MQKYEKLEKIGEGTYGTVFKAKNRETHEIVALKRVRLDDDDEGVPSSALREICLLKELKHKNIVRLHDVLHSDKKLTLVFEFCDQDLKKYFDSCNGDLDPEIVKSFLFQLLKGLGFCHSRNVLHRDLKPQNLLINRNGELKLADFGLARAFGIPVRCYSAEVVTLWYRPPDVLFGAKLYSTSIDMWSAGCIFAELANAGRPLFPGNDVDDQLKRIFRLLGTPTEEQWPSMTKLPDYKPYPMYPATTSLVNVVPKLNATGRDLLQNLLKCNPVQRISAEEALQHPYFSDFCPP
Metric: inhibition at 10 µM (%)
Only the number, expressed in %, is required.

In the examples that follow, each entry is paired with its recorded inhibition at 10 µM.
COc1ccc(Nc2nccc(-c3cnn4ncccc34)n2)cc1: 99.8
Cc1ccc(O)cc1Nc1ccnc(Nc2cccc(C(N)=O)c2)n1: 0
Clc1ccc(Nc2ncc(-c3ccccc3)s2)cc1: 0
Cc1ccc(O)cc1N(C)c1ccnc(Nc2cccc(S(N)(=O)=O)c2)n1: 0

Ask | // returns reported inhibition at 10 µM for input Fc1cccc(COc2ccc(Nc3ncnc4c3CN(CCN3CCOCC3)CC4)cc2Cl)c1
Reply | 0

----------
target: panel of 203 kinases (Homo sapiens); construct: purchased DiscoverX (KINOMEscan); assay: KINOMEscan competitive binding, whole panel; details: 10 µM, n=1; kinase CAMK2A; read-out: Percent inhibition CAMK2A
Sequence (Q9UQM7 whole entry): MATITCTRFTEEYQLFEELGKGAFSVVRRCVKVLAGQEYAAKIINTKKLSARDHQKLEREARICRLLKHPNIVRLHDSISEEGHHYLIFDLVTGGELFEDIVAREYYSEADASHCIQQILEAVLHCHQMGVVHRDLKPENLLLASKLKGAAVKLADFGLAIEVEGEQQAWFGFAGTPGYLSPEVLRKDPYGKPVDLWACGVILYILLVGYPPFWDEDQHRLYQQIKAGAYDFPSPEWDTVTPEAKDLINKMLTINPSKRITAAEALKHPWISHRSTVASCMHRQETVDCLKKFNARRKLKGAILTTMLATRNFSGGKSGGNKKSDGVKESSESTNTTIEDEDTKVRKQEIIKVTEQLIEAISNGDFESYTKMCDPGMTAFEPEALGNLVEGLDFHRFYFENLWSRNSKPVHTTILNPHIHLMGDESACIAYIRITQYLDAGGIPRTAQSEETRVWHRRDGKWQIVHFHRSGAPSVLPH
# inhibition at 10 µM annotations
Only the number, expressed in %, is required.

In the examples that follow, each entry is paired with its recorded inhibition at 10 µM.
Cc1ccc(O)cc1Nc1ccnc(Nc2cccc(C(N)=O)c2)n1: 0
Clc1ccc(Nc2ncc(-c3ccccc3)s2)cc1: 0

Ask | // returns reported inhibition at 10 µM for input c1ccc(COc2cccc(-c3ccnc4[nH]ccc34)c2)cc1
Reply | 0

Ask | // next record COc1ccc(Nc2nccc(-c3cnn4ncccc34)n2)cc1
Reply | 82.5

Ask | // next record COc1cc(Nc2nccc(-c3sc(N)nc3-c3cccc(NC(=O)c4c(F)cccc4F)c3)n2)cc(OC)c1OC
Reply | 0

Ask | // next record Fc1cccc(COc2ccc(Nc3ncnc4c3CN(CCN3CCOCC3)CC4)cc2Cl)c1
Reply | 0

Ask | // next record CN1CCN(c2ccc(Nc3nccc(-c4cnn5ncccc45)n3)cc2C#N)CC1
Reply | 98.7

Ask | // next record C[C@@H](Oc1cc(-c2cnc3ccccn23)sc1C(N)=O)c1ccccc1Cl
Reply | 66.5

Ask | // next record Nc1ncc2c(-c3ccncc3)c[nH]c2n1
Reply | 77.6

Ask | // next record Cc1ccc(O)cc1N(C)c1ccnc(Nc2cccc(S(N)(=O)=O)c2)n1
Reply | 0

----------
# inhibition at 10 µM annotations
biological target: LYN (Homo sapiens); construct: purchased DiscoverX (KINOMEscan); experiment: KINOMEscan competitive binding; details: 10 µM, n=1; kinase LYN; read-out: Percent inhibition LYN
Sequence (P07948 whole entry): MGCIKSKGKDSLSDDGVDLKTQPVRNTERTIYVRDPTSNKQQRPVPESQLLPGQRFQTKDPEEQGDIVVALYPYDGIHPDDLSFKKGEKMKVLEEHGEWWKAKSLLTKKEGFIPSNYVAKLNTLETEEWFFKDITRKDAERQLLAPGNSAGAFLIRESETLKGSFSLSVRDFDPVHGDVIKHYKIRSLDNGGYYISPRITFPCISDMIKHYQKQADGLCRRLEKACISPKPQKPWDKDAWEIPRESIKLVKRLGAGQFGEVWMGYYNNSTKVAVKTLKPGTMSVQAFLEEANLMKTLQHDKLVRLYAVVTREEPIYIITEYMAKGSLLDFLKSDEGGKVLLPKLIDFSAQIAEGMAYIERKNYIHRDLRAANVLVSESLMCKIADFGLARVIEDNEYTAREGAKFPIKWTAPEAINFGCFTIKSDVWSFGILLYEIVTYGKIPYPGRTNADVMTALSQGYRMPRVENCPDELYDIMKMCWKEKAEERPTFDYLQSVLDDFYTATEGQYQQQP
Only the number, expressed in %, is required.

Ask | // returns reported inhibition at 10 µM for input Nc1ncc2c(-c3ccncc3)c[nH]c2n1
Reply | 0

Ask | // next record COc1cc(Nc2nccc(-c3sc(N)nc3-c3cccc(NC(=O)c4c(F)cccc4F)c3)n2)cc(OC)c1OC
Reply | 100

Ask | // next record CN1CCN(c2ccc(Nc3nccc(-c4cnn5ncccc45)n3)cc2C#N)CC1
Reply | 0

Ask | // next record c1ccc(COc2cccc(-c3ccnc4[nH]ccc34)c2)cc1
Reply | 0

Ask | // next record Clc1ccc(Nc2ncc(-c3ccccc3)s2)cc1
Reply | 100

Ask | // next record COc1ccc(Nc2nccc(-c3cnn4ncccc34)n2)cc1
Reply | 0

Ask | // next record Cc1ccc(O)cc1N(C)c1ccnc(Nc2cccc(S(N)(=O)=O)c2)n1
Reply | 99.8
